Each recorded value in this set is attributed to ChEMBL document CHEMBL3885861.

Would you mind telling me the reported MCH of each entry?
- Species: Rattus norvegicus
- Experiment Summary: Open TG-GATES - Regimen: Single
- Type: toxicity, organism-based, Sprague-Dawley
- Set-up: regimen Single, gender Male, age 6 weeks
- Experimental Setup: in vivo, po, 0 mg/kg, 6 h, tissue Blood, route gavage, dose level Control
Kindly provide the numeric value in pg only, without the unit symbol.

For record CN/C(=N/CCSCc1nc[nH]c1C)NC#N the listed MCH is 21.6

For record Cc1nnc2n1-c1ccc(Cl)cc1C(c1ccccc1Cl)=NC2 the listed MCH is 21.3

For record CCCc1cc(=O)[nH]c(=S)[nH]1 the listed MCH is 21.5

For record Brc1ccccc1 the listed MCH is 21.4

For record COC(=O)C1=C(C)NC(C)=C(C(=O)OC)C1c1ccccc1[N+](=O)[O-] the listed MCH is 21.1

For record CNC(=C[N+](=O)[O-])NCCSCc1ccc(CN(C)C)o1 the listed MCH is 22.3

For record O=C(OC[C@H]1O[C@@H](OC(=O)c2cc(O)c(O)c(OC(=O)c3cc(O)c(O)c(O)c3)c2)[C@H](OC(=O)c2cc(O)c(O)c(OC(=O)c3cc(O)c(O)c(O)c3)c2)[C@@H](OC(=O)c2cc(O)c(O)c(OC(=O)c3cc(O)c(O)c(O)c3)c2)[C@@H]1OC(=O)c1cc(O)c(O)c(OC(=O)c2cc(O)c(O)c(O)c2)c1)c1cc(O)c(O)c(OC(=O)c2cc(O)c(O)c(O)c2)c1 the listed MCH is 22.1

For record CC(C)NNC(=O)c1ccncc1 the listed MCH is 21.5

For record CN(C)CCC(c1ccc(Cl)cc1)c1ccccn1 (stereo not drawn) the listed MCH is 20.7

For record NC1=NC(=O)C(c2ccccc2)O1 (stereo not drawn) the listed MCH is 22.4

For record CCOc1ccc(NC(C)=O)cc1 the listed MCH is 20.7

For record CN1C(=O)CCS(=O)(=O)C1c1ccc(Cl)cc1 (stereo not drawn) the listed MCH is 21.9

For record Nc1c2c(nc3ccccc13)CCCC2 the listed MCH is 21.1
